Attribution: ChEMBL document CHEMBL3400015

System: Staphylococcus epidermidis
Test: Antimicrobial activity against methicillin-resistant Staphylococcus epidermidis isolate 460/11 after 18 hrs by twofold serial broth dilution method
Assay type: functional
Details: isolate 460/11, 18 h
MIC values, listed per item

So, CC[C@@H](C(=O)[C@@H](C)[C@@H](O)[C@H](C)[C@@H]1O[C@@H]([C@@H](CC)C(=O)N(CCO)CCO)CC[C@@H]1C)[C@H]1O[C@]2(C=C[C@@H](O)[C@]3(CC[C@@](C)([C@H]4CC[C@](O)(CC)[C@H](C)O4)O3)O2)[C@H](C)C[C@@H]1C ? Its MIC was 4 µg/mL

So, CC[C@@H](C(=O)[C@@H](C)[C@@H](O)[C@H](C)[C@@H]1O[C@@H]([C@@H](CC)C(=O)N2CCOCC2)CC[C@@H]1C)[C@H]1O[C@]2(C=C[C@@H](O)[C@]3(CC[C@@](C)([C@H]4CC[C@](O)(CC)[C@H](C)O4)O3)O2)[C@H](C)C[C@@H]1C ? Its MIC was 256 µg/mL

So, CCCCCCCCN(CCCCCCCC)C(=O)[C@H](CC)[C@H]1CC[C@H](C)[C@H]([C@@H](C)[C@H](O)[C@H](C)C(=O)[C@H](CC)[C@H]2O[C@]3(C=C[C@@H](O)[C@]4(CC[C@@](C)([C@H]5CC[C@](O)(CC)[C@H](C)O5)O4)O3)[C@H](C)C[C@@H]2C)O1 ? Its MIC was 256 µg/mL

So, CC[C@@H](C(=O)[C@@H](C)[C@@H](O)[C@H](C)[C@@H]1O[C@@H]([C@@H](CC)C(=O)N(CCOC)CCOC)CC[C@@H]1C)[C@H]1O[C@]2(C=C[C@@H](O)[C@]3(CC[C@@](C)([C@H]4CC[C@](O)(CC)[C@H](C)O4)O3)O2)[C@H](C)C[C@@H]1C ? Its MIC was 128 µg/mL

----------
MIC values, listed per item
System: Staphylococcus epidermidis
Assay: Antimicrobial activity against methicillin-resistant Staphylococcus epidermidis isolate 454/11 after 18 hrs by twofold serial broth dilution method
Format: functional
Conditions: isolate 454/11, 18 h
Numbers only here, please. The scale is µg/mL.

Answered cases to consult:
given smiles	quantity unit	MIC
O=C(O)c1cn(C2CC2)c2cc(N3CCNCC3)c(F)cc2c1=O	µg/mL	0.0625
CCCN(CCC)C(=O)[C@H](CC)[C@H]1CC[C@H](C)[C@H]([C@@H](C)[C@H](O)[C@H](C)C(=O)[C@H](CC)[C@H]2O[C@]3(C=C[C@@H](O)[C@]4(CC[C@@](C)([C@H]5CC[C@](O)(CC)[C@H](C)O5)O4)O3)[C@H](C)C[C@@H]2C)O1	µg/mL	4

So, CC[C@@H](C(=O)[C@@H](C)[C@@H](O)[C@H](C)[C@@H]1O[C@@H]([C@@H](CC)C(=O)N(CCO)CCO)CC[C@@H]1C)[C@H]1O[C@]2(C=C[C@@H](O)[C@]3(CC[C@@](C)([C@H]4CC[C@](O)(CC)[C@H](C)O4)O3)O2)[C@H](C)C[C@@H]1C ? Its MIC was 2

----------
diameter of the inhibition zone (DIZ) values, listed per item
Tested on: Bacillus subtilis
Assay: Genotoxicity in rec-positive Bacillus subtilis H17 at 2 ug/9 mm disc after 24 hrs by disc diffusion method
Assay type: toxicity, organism-based
Numbers only here, please. The scale is mm.

Answered cases to consult:
given smiles	quantity unit	value measured
CCCN(CCC)C(=O)[C@H](CC)[C@H]1CC[C@H](C)[C@H]([C@@H](C)[C@H](O)[C@H](C)C(=O)[C@H](CC)[C@H]2O[C@]3(C=C[C@@H](O)[C@]4(CC[C@@](C)([C@H]5CC[C@](O)(CC)[C@H](C)O5)O4)O3)[C@H](C)C[C@@H]2C)O1	mm	28
CC[C@@H](C(=O)[C@@H](C)[C@@H](O)[C@H](C)[C@@H]1O[C@@H]([C@@H](CC)C(=O)O)CC[C@@H]1C)[C@H]1O[C@]2(C=C[C@@H](O)[C@]3(CC[C@@](C)([C@H]4CC[C@](O)(CC)[C@H](C)O4)O3)O2)[C@H](C)C[C@@H]1C	mm	31
CC[C@@H](C(=O)[C@@H](C)[C@@H](O)[C@H](C)[C@@H]1O[C@@H]([C@@H](CC)C(=O)N(CCOC)CCOC)CC[C@@H]1C)[C@H]1O[C@]2(C=C[C@@H](O)[C@]3(CC[C@@](C)([C@H]4CC[C@](O)(CC)[C@H](C)O4)O3)O2)[C@H](C)C[C@@H]1C	mm	13

# next molecule below
So, CC[C@@H](C(=O)[C@@H](C)[C@@H](O)[C@H](C)[C@@H]1O[C@@H]([C@@H](CC)C(=O)N(CC)CC)CC[C@@H]1C)[C@H]1O[C@]2(C=C[C@@H](O)[C@]3(CC[C@@](C)([C@H]4CC[C@](O)(CC)[C@H](C)O4)O3)O2)[C@H](C)C[C@@H]1C ? Its diameter of the inhibition zone (DIZ) was 26

----------
diameter of the inhibition zone (DIZ) values, listed per item
Test system: Bacillus subtilis
Assay: Genotoxicity in rec-positive Bacillus subtilis H17 at 2 ug/9 mm disc after 24 hrs by disc diffusion method
Type: toxicity, organism-based
Numbers only here, please. The scale is mm.

compound	target or system	diameter of the inhibition zone (DIZ) (mm)
CC[C@@H](C(=O)[C@@H](C)[C@@H](O)[C@H](C)[C@@H]1O[C@@H]([C@@H](CC)C(=O)N(CCO)CCO)CC[C@@H]1C)[C@H]1O[C@]2(C=C[C@@H](O)[C@]3(CC[C@@](C)([C@H]4CC[C@](O)(CC)[C@H](C)O4)O3)O2)[C@H](C)C[C@@H]1C	Bacillus subtilis	28

So, O=[N+]([O-])c1cc[n+]([O-])c2ccccc12 [4-NITROQUINOLINE-1-OXIDE] ? Its diameter of the inhibition zone (DIZ) was 13

So, CC[C@@H](C(=O)[C@@H](C)[C@@H](O)[C@H](C)[C@@H]1O[C@@H]([C@@H](CC)C(=O)N2CCNCC2)CC[C@@H]1C)[C@H]1O[C@]2(C=C[C@@H](O)[C@]3(CC[C@@](C)([C@H]4CC[C@](O)(CC)[C@H](C)O4)O3)O2)[C@H](C)C[C@@H]1C ? Its diameter of the inhibition zone (DIZ) was 14

So, CC[C@@H](C(=O)[C@@H](C)[C@@H](O)[C@H](C)[C@@H]1O[C@@H]([C@@H](CC)C(=O)N(Cc2ccccc2)Cc2ccccc2)CC[C@@H]1C)[C@H]1O[C@]2(C=C[C@@H](O)[C@]3(CC[C@@](C)([C@H]4CC[C@](O)(CC)[C@H](C)O4)O3)O2)[C@H](C)C[C@@H]1C ? Its diameter of the inhibition zone (DIZ) was 21

So, CCCCN(CCCC)C(=O)[C@H](CC)[C@H]1CC[C@H](C)[C@H]([C@@H](C)[C@H](O)[C@H](C)C(=O)[C@H](CC)[C@H]2O[C@]3(C=C[C@@H](O)[C@]4(CC[C@@](C)([C@H]5CC[C@](O)(CC)[C@H](C)O5)O4)O3)[C@H](C)C[C@@H]2C)O1 ? Its diameter of the inhibition zone (DIZ) was 29

----------
MBC values, listed per item
System: Staphylococcus epidermidis
Experiment: Bactericidal activity against methicillin-resistant Staphylococcus epidermidis isolate 459/11 after 24 hrs
Format: functional
Details: isolate 459/11, 24 h, read-out: MBC99.9

So, CC[C@@H](C(=O)[C@@H](C)[C@@H](O)[C@H](C)[C@@H]1O[C@@H]([C@@H](CC)C(=O)N2CCOCC2)CC[C@@H]1C)[C@H]1O[C@]2(C=C[C@@H](O)[C@]3(CC[C@@](C)([C@H]4CC[C@](O)(CC)[C@H](C)O4)O3)O2)[C@H](C)C[C@@H]1C ? Its MBC was > 256 µg/mL

So, CC[C@@H](C(=O)[C@@H](C)[C@@H](O)[C@H](C)[C@@H]1O[C@@H]([C@@H](CC)C(=O)N(CCO)CCO)CC[C@@H]1C)[C@H]1O[C@]2(C=C[C@@H](O)[C@]3(CC[C@@](C)([C@H]4CC[C@](O)(CC)[C@H](C)O4)O3)O2)[C@H](C)C[C@@H]1C ? Its MBC was 256 µg/mL

So, O=C(O)c1cn(C2CC2)c2cc(N3CCNCC3)c(F)cc2c1=O ? Its MBC was > 256 µg/mL

So, CC[C@@H](C(=O)[C@@H](C)[C@@H](O)[C@H](C)[C@@H]1O[C@@H]([C@@H](CC)C(=O)N(CC)CC)CC[C@@H]1C)[C@H]1O[C@]2(C=C[C@@H](O)[C@]3(CC[C@@](C)([C@H]4CC[C@](O)(CC)[C@H](C)O4)O3)O2)[C@H](C)C[C@@H]1C ? Its MBC was 256 µg/mL
